Field: Fbg. Provide a value for each of the compounds that follow.
- Organism: Rattus norvegicus
- experiment: Open TG-GATES - Regimen: Single
- Format: toxicity, organism-based, Sprague-Dawley
- Parameters: regimen Single, gender Male, age 6 weeks
- measurement-setup: in vivo, po, 0 mg/kg, 6 h, tissue Blood, route gavage, dose level Control
Numbers only, in mg/dL.

{"compound": "C[C@H]1O[C@H](O[C@H]2[C@H](O)[C@@H](O)[C@@H](O[C@H]3[C@H](O)[C@@H](O)C(O)O[C@@H]3CO)O[C@@H]2CO)[C@H](O)[C@@H](O)[C@@H]1N[C@H]1C=C(CO)[C@@H](O)[C@H](O)[C@H]1O (stereo partly drawn)", "Fbg / mg/dL": 286}
{"compound": "C[C@H]1C(=O)O[C@@H]2CCN3CC=C(COC(=O)[C@](C)(O)[C@]1(C)O)[C@H]23", "Fbg / mg/dL": 316}
{"compound": "C=C(C)[C@H]1Cc2c(ccc3c2O[C@@H]2COc4cc(OC)c(OC)cc4[C@@H]2C3=O)O1", "Fbg / mg/dL": 218}
{"compound": "Cc1cccc(C)c1OCC(C)N (stereo not drawn)", "Fbg / mg/dL": 305.2}
{"compound": "OCCN1CCN(CCCN2c3ccccc3Sc3ccc(C(F)(F)F)cc32)CC1", "Fbg / mg/dL": 214.4}
{"compound": "Cn1cc[nH]c1=S", "Fbg / mg/dL": 287.6}

Could you report Fbg for every entry in the following list?
1. O=[N+]([O-])c1ccc(O)c([N+](=O)[O-])c1
2. CCOC(=O)C(C)(C)Oc1ccc(Cl)cc1 [CLOFIBRATE]

Result:
1. 232
2. 229.6

###

- Species on record: Rattus norvegicus
- experiment: Open TG-GATES - Regimen: Single
- Assay type: toxicity, organism-based, Sprague-Dawley
- Parameters: regimen Single, gender Male, age 6 weeks
- measurement-setup: in vivo, po, 0 mg/kg, 24 h, tissue Liver, route gavage, dose level Control
measured-parameter: LIVER (g)
Give bare numbers, in g.

Study these solved cases before continuing.
{"compound": "O=[N+]([O-])c1ccc(O)c([N+](=O)[O-])c1 [2,4-DINITROPHENOL]", "result-units": "g", "reported-result": 10.9}
{"compound": "Cc1ccc2cc3c(ccc4ccccc43)c3c2c1CC3 [3-METHYLCHOLANTHRENE]", "result-units": "g", "reported-result": 9.8}
{"compound": "C[C@H]1O[C@H](O[C@H]2[C@H](O)[C@@H](O)[C@@H](O[C@H]3[C@H](O)[C@@H](O)C(O)O[C@@H]3CO)O[C@@H]2CO)[C@H](O)[C@@H](O)[C@@H]1N[C@H]1C=C(CO)[C@@H](O)[C@H](O)[C@H]1O (stereo partly drawn) [ACARBOSE]", "result-units": "g", "reported-result": 9.8}
{"compound": "C[C@H]1C(=O)O[C@@H]2CCN3CC=C(COC(=O)[C@](C)(O)[C@]1(C)O)[C@H]23 [MONOCROTALINE]", "result-units": "g", "reported-result": 10.5}

I would be grateful if you could provide LIVER for each of the following entries.
1. CCOC(=O)C(C)(C)Oc1ccc(Cl)cc1 [CLOFIBRATE]
2. Cc1cccc(C)c1OCC(C)N (stereo not drawn) [MEXILETINE]
3. C=C(C)[C@H]1Cc2c(ccc3c2O[C@@H]2COc4cc(OC)c(OC)cc4[C@@H]2C3=O)O1 [ROTENONE]
4. OCCN1CCN(CCCN2c3ccccc3Sc3ccc(C(F)(F)F)cc32)CC1 [FLUPHENAZINE]

Result:
1. 10.9
2. 9.9
3. 10.1
4. 10.7

###

Provide the reported BUN of each item.
- Organism: Rattus norvegicus
- experiment: Open TG-GATES - Regimen: Daily Repeat
- Format: toxicity, organism-based, Sprague-Dawley
- Set-up: regimen Daily Repeat, gender Male, age 6 weeks
- measurement-setup: in vivo, po, 0 mg/kg, […], tissue Plasma, route gavage, dose level Control, time 14 day
Numbers only, in mg/dL.

{"compound": "C[C@H]1C(=O)O[C@@H]2CCN3CC=C(COC(=O)[C@](C)(O)[C@]1(C)O)[C@H]23", "BUN / mg/dL": 19.4}
{"compound": "O=[N+]([O-])c1ccc(O)c([N+](=O)[O-])c1", "BUN / mg/dL": 18.4}
{"compound": "O=C1CN(/N=C/c2ccc([N+](=O)[O-])o2)C(=O)N1", "BUN / mg/dL": 16.6}
{"compound": "CCOC(=O)C(C)(C)Oc1ccc(Cl)cc1 [CLOFIBRATE]", "BUN / mg/dL": 16.2}
{"compound": "C[C@H]1O[C@H](O[C@H]2[C@H](O)[C@@H](O)[C@@H](O[C@H]3[C@H](O)[C@@H](O)C(O)O[C@@H]3CO)O[C@@H]2CO)[C@H](O)[C@@H](O)[C@@H]1N[C@H]1C=C(CO)[C@@H](O)[C@H](O)[C@H]1O (some centres undefined)", "BUN / mg/dL": 16}

Hi! Can you tell me BUN for each of these compounds?
1. Cn1cc[nH]c1=S
2. OCCN1CCN(CCCN2c3ccccc3Sc3ccc(C(F)(F)F)cc32)CC1
3. C=C(C)[C@H]1Cc2c(ccc3c2O[C@@H]2COc4cc(OC)c(OC)cc4[C@@H]2C3=O)O1
4. Cc1cccc(C)c1OCC(C)N (centres undefined)

Result:
1: 18.2; 2: 19.8; 3: 18.4; 4: 19

###

Provide the reported Mono of each item.
- Organism: Rattus norvegicus
- experiment: Open TG-GATES - Regimen: Single
- Assay type: toxicity, organism-based, Sprague-Dawley
- Design: regimen Single, gender Male, age 6 weeks
- measurement-setup: in vivo, po, 0 mg/kg, 24 h, tissue Blood, route gavage, dose level Control
The reply should consist of the numeric value with the unit placed after it.

Some solved cases for reference:
{"smiles-string": "O=[N+]([O-])c1ccc(O)c([N+](=O)[O-])c1", "Mono": "9.4%"}
{"smiles-string": "C=C(C)[C@H]1Cc2c(ccc3c2O[C@@H]2COc4cc(OC)c(OC)cc4[C@@H]2C3=O)O1", "Mono": "9.8%"}
{"smiles-string": "Cn1cc[nH]c1=S", "Mono": "2.8%"}
{"smiles-string": "C[C@H]1C(=O)O[C@@H]2CCN3CC=C(COC(=O)[C@](C)(O)[C@]1(C)O)[C@H]23", "Mono": "2.8%"}

Lab note: measured Mono of `Cc1ccc2cc3c(ccc4ccccc43)c3c2c1CC3` was 3.2%

###

- Species on record: Rattus norvegicus
- experiment: Open TG-GATES - Regimen: Single
- Assay type: toxicity, organism-based, Sprague-Dawley
- Set-up: regimen Single, gender Male, age 6 weeks
- measurement-setup: in vivo, po, 0 mg/kg, 3 h, tissue Blood, route gavage, dose level Control
measured-parameter: Plat (x10_4/uL)
Numbers only, in x10_4/uL.

Some solved cases for reference:
{"compound": "Cc1ccc2cc3c(ccc4ccccc43)c3c2c1CC3", "result-units": "x10_4/uL", "Plat": 126.1}
{"compound": "C[C@H]1O[C@H](O[C@H]2[C@H](O)[C@@H](O)[C@@H](O[C@H]3[C@H](O)[C@@H](O)C(O)O[C@@H]3CO)O[C@@H]2CO)[C@H](O)[C@@H](O)[C@@H]1N[C@H]1C=C(CO)[C@@H](O)[C@H](O)[C@H]1O (some centres undefined)", "result-units": "x10_4/uL", "Plat": 116.5}
{"compound": "Cn1cc[nH]c1=S", "result-units": "x10_4/uL", "Plat": 122.5}
{"compound": "O=[N+]([O-])c1ccc(O)c([N+](=O)[O-])c1", "result-units": "x10_4/uL", "Plat": 109.2}
{"compound": "Cc1cccc(C)c1OCC(C)N (centres undefined)", "result-units": "x10_4/uL", "Plat": 107.7}

Parameter requested: Plat. Apply to each item below.
1. OCCN1CCN(CCCN2c3ccccc3Sc3ccc(C(F)(F)F)cc32)CC1
2. C=C(C)[C@H]1Cc2c(ccc3c2O[C@@H]2COc4cc(OC)c(OC)cc4[C@@H]2C3=O)O1
3. C[C@H]1C(=O)O[C@@H]2CCN3CC=C(COC(=O)[C@](C)(O)[C@]1(C)O)[C@H]23

Result:
106.1
131.6
116.9

Value of measured Plat for the entry CCOC(=O)C(C)(C)Oc1ccc(Cl)cc1 [CLOFIBRATE] : 137.2

###

- Species: Rattus norvegicus
- experiment: Open TG-GATES - Regimen: Single
- Assay type: toxicity, organism-based, Sprague-Dawley
- Design: regimen Single, gender Male, age 6 weeks
- measurement-setup: in vivo, po, 0 mg/kg, 24 h, tissue Blood, route gavage, dose level Control
measured-parameter: Lym (%)
One number for each entry, in %.

{"compound": "Cn1cc[nH]c1=S", "result-units": "%", "Lym": 78}
{"compound": "CCOC(=O)C(C)(C)Oc1ccc(Cl)cc1 [CLOFIBRATE]", "result-units": "%", "Lym": 80.8}
{"compound": "Cc1cccc(C)c1OCC(C)N (centres undefined)", "result-units": "%", "Lym": 78.4}
{"compound": "C=C(C)[C@H]1Cc2c(ccc3c2O[C@@H]2COc4cc(OC)c(OC)cc4[C@@H]2C3=O)O1", "result-units": "%", "Lym": 69}
{"compound": "C[C@H]1C(=O)O[C@@H]2CCN3CC=C(COC(=O)[C@](C)(O)[C@]1(C)O)[C@H]23", "result-units": "%", "Lym": 83}
{"compound": "O=[N+]([O-])c1ccc(O)c([N+](=O)[O-])c1", "result-units": "%", "Lym": 72}

Here are 3 compounds. What values of Lym were reported for them?
1. Cc1ccc2cc3c(ccc4ccccc43)c3c2c1CC3
2. C[C@H]1O[C@H](O[C@H]2[C@H](O)[C@@H](O)[C@@H](O[C@H]3[C@H](O)[C@@H](O)C(O)O[C@@H]3CO)O[C@@H]2CO)[C@H](O)[C@@H](O)[C@@H]1N[C@H]1C=C(CO)[C@@H](O)[C@H](O)[C@H]1O (some centres undefined)
3. OCCN1CCN(CCCN2c3ccccc3Sc3ccc(C(F)(F)F)cc32)CC1

Result:
1: 79.4; 2: 73.6; 3: 80.8
